biological target: wild type human RORγt LBD (Homo sapiens, UniProt P51449); construct: expressed in transfected cells; host or cells: HEK293T; experiment: RORγt Reporter Assay (GAL4-RORγt LBD luciferase in HEK293T cells); format: cell-based; conditions: @ 6 µM; HEK293T cells
Sequence (P51449 269-508 limits assumed): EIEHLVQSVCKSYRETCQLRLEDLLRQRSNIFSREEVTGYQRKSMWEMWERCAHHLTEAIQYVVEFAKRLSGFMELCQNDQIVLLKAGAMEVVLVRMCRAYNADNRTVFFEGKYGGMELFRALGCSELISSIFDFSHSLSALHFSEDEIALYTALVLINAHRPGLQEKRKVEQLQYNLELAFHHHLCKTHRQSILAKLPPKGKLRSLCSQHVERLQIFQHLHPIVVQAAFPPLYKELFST
metricName: RORγt reporter Assay, % inhibition @ 6 µM (%)

Cc1cc(C(O)(c2ccc(Cl)cc2)c2cncn2C)cc2c(C#N)c(-c3ccccc3)c(C#N)nc12 (single isomer, unassigned) [Example 23c] = 100
Cc1nc(C)c(C(O)(c2ccc3nc(C#N)c(-c4ccccc4)c(C#N)c3c2)c2cnnn2C)s1 (single isomer, unassigned) [Example 47c] = 100
Cn1cncc1C(O)(c1ccc2nc(C#N)c(-c3ccccc3)c(C#N)c2c1)c1ccccn1 (single isomer, unassigned) [Example 18c] = 95
COc1nc2ccc(C(O)(c3cncn3C)c3cnnn3C)cc2c(C#N)c1-c1cccc(C(F)(F)F)c1 (single isomer, unassigned) = 98
COc1nc2ccc(C(O)(c3cncn3C)C3CCN(C(C)=O)CC3)cc2c(Cl)c1-c1cccc(C(F)(F)F)c1 (single isomer, unassigned) = 95
COc1c(-c2ccccc2)c(C(F)(F)F)nc2ccc(C(O)(c3ccc(Cl)cc3)c3cncn3C)cc12 (single isomer, unassigned) [Example 33c] = 99
COc1nc2ccc(C(O)(c3cncn3C)c3cnnn3C)cc2c(Cl)c1-c1cccc(C(F)(F)F)c1 (single isomer, unassigned) = 98
COc1c(-c2ccccc2)c(Cl)nc2ccc(C(O)(c3cnnn3C)c3cnc(C)n3C)cc12 (single isomer, unassigned) [Example 40c] = 103

This collection of values is drawn from patent EP3057950B1.
